- EXPERIMENTAL_PROTOCOL: Oral bioavailability in Sprague-Dawley rat at 3 mg/kg
- Type: ADME, organism-based
- CONDITION_CONTEXT: in vivo

# STRUCTURE_AS_SMILES, bioavailability
records = [
    ("C[C@@](N)(CCc1ccc(-c2nc3ccc(C4(c5ccccc5)CC4)nc3s2)c(F)c1)C(=O)O", "16%"),
]

###

- EXPERIMENTAL_PROTOCOL: Fraction unbound in rat plasma
- Type: ADME, cell-free
METRIC: fraction unbound

# STRUCTURE_AS_SMILES, VAL
rows = [
    ("C[C@@](N)(CCc1ccc(-c2nc3ccc(C4(c5ccccc5)CC4)nc3s2)c(F)c1)C(=O)O", 0.039),
]

###

- SYSTEM_UNDER_TEST: Sphingosine 1-phosphate receptor 3 (Homo sapiens, UniProt Q99500)
- Sequence (Q99500 whole entry): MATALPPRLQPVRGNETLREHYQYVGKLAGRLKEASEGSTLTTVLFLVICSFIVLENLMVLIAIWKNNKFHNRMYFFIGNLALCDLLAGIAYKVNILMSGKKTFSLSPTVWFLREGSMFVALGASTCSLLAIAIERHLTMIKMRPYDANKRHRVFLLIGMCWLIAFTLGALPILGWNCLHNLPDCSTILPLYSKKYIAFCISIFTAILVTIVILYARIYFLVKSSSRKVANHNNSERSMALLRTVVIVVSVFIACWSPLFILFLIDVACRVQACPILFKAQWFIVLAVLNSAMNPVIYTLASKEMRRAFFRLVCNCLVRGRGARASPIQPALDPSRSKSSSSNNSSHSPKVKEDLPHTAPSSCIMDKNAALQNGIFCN
- EXPERIMENTAL_PROTOCOL: Agonist activity at human S1P3 receptor expressed in CHO cells coexpressing chimeric Gq/i5 G-protein assessed as Ca2+ release by FLIPR assay relative to 0.2 uM S1P
- Type: functional, cell-based
Rule for this label: True means Efficacy is less than 20%; False means Efficacy is at least 20%.

# STRUCTURE_AS_SMILES, CAT
measured = [
    ("N[C@@H](CC(=O)O)C(=O)Nc1ccc(-c2nc3ccc(C4(c5ccccc5)CC4)nc3s2)c(F)c1", "False"),
    ("O=C(O)CCCNc1ccc(-c2nc3ccc(C4(c5ccccc5)CC4)nc3s2)c(F)c1", "True"),
    ("O=C(O)CNCc1ccc(-c2nc3ccc(C4(c5ccccc5)CC4)nc3s2)c(F)c1", "True"),
    ("O=C(O)CCC(=O)Nc1ccc(-c2nc3ccc(C4(c5ccccc5)CC4)nc3s2)c(F)c1", "False"),
    ("O=C(O)C1CN(Cc2ccc(-c3nc4ccc(C5(c6ccccc6)CC5)nc4s3)c(F)c2)C1", "False"),
    ("O=C(O)CNCCc1ccc(-c2nc3ccc(C4(c5ccccc5)CC4)nc3s2)c(F)c1", "True"),
    ("N[C@H](CC(=O)O)C(=O)Nc1ccc(-c2nc3ccc(C4(c5ccccc5)CC4)nc3s2)c(F)c1", "False"),
]

###

- EXPERIMENTAL_PROTOCOL: Volume of distribution at steady state in Sprague-Dawley rat at 1 mg/kg, iv and 3 mg/kg, po
- Assay type: ADME, organism-based
- CONDITION_CONTEXT: in vivo, read-out: Vdss
METRIC: Vd (L/kg)

# STRUCTURE_AS_SMILES, VAL
data = [
    ("C[C@@](N)(CCc1ccc(-c2nc3ccc(C4(c5ccccc5)CC4)nc3s2)c(F)c1)C(=O)O", 4.1),
]

###

- Test system: Plasma
- EXPERIMENTAL_PROTOCOL: Plasma concentration in Lewis rat at 1 mg/kg, po; note: time not given here
- Format: ADME, organism-based
- Set-up: dose 1 mg/kg, route oral
- CONDITION_CONTEXT: in vivo
Reported Cp by item:

# STRUCTURE_AS_SMILES, Cp / ng/mL
data = [
    ("O=C(O)C1CN(Cc2ccc(-c3nc4ccc(C5(c6ccccc6)CC5)nc4s3)c(F)c2)C1", 116),
    ("N[C@@H](CC(=O)O)C(=O)Nc1ccc(-c2nc3ccc(C4(c5ccccc5)CC4)nc3s2)c(F)c1", 1),
    ("N[C@@H](CC(=O)Nc1ccc(-c2nc3ccc(C4(c5ccccc5)CC4)nc3s2)c(F)c1)C(=O)O", 8),
]
